Exercise: for every item that follows, state its recorded % from freshly processed samples (n=2).
- studyConditions: human, 6 h, 2000 ng/mL
Give bare numbers, in %.

The cases that follow already have their % from freshly processed samples (n=2) on record.
[
  {
    "compound": "O=C(C1CCCCC1)N1CCN(c2nc(=O)c3cc(C(F)(F)F)cc([N+](=O)[O-])c3s2)CC1",
    "scaleUnit": "%",
    "% from freshly processed samples (n=2)": -3
  },
  {
    "compound": "O=C1CCCC(CN2CCN(c3nc(=O)c4cc(C(F)(F)F)cc([N+](=O)[O-])c4s3)CC2)C1 (centres unmarked)",
    "scaleUnit": "%",
    "% from freshly processed samples (n=2)": -1
  }
]

Provide each entry's % from freshly processed samples (n=2) from the list below.
1. O=c1nc(N2CCN(CC3CCCCC3O)CC2)sc2c([N+](=O)[O-])cc(C(F)(F)F)cc12 (centres unmarked)
2. O=c1nc(N2CCN(CC3(O)CCCCC3)CC2)sc2c([N+](=O)[O-])cc(C(F)(F)F)cc12
3. O=c1nc(N2CCN(CC3CCCC(O)C3)CC2)sc2c([N+](=O)[O-])cc(C(F)(F)F)cc12 (centres unmarked)

Ans.
-2
-1
-2
